molecular target: Rat2 fibroblasts stably transformed with v-Src/Hu Lck fusion gene (Homo sapiens, UniProt P06239, cells depend on it, form not given); construct: Candidates are e.g. Schmidt-Ruppin A (P00524) or Prague C (P00526); The human Lck catalytic domain stands in place of the v-Src catalytic domain; test: Anchorage independent Lck-transformed fibroblast proliferation assay; assay type: cell-based, rat; conditions: Table 2; suspension growth, MTS readout Day 5; read-out: Lck cells IC50
Sequence (P06239 whole entry, change not shown, the tested form may be a part): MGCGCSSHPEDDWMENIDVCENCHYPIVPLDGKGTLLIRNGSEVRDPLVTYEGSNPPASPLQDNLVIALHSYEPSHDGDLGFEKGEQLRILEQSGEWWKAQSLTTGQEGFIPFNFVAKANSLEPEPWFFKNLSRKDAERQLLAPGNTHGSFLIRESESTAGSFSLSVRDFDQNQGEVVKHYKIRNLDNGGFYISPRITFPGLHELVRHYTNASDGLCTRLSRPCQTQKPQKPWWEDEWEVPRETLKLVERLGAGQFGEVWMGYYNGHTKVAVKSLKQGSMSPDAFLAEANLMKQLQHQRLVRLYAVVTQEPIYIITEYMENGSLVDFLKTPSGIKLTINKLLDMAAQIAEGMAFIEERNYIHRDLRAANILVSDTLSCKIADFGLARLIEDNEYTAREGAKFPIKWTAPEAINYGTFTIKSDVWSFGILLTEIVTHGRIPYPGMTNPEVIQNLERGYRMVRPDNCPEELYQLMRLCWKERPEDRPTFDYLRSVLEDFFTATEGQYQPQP
quantity: GI50 (nM)

COc1cc(Nc2c(C#N)cnc3cc(-c4csc(CN5CCOCC5)c4)sc23)c(Cl)cc1Cl :: 680

a. COc1cc(Nc2c(C#N)cnc3cc(-c4ccc(CN(C)C)cc4)sc23)c(Cl)cc1Cl
b. COc1cc(Nc2c(C#N)cnc3cc(-c4ccc(CN5CCN(CCO)CC5)cc4)sc23)c(Cl)cc1Cl
c. COc1cc(Nc2c(C#N)cnc3cc(-c4ccc(CN5CCN(C)CC5)cc4)sc23)cc(OC)c1OC
d. COc1cc(Nc2c(C#N)cnc3cc(Br)sc23)c(Cl)cc1Cl
e. COc1cc(Nc2c(C#N)cnc3cc(-c4ccc(CN5CCOCC5)cc4)sc23)c(Cl)cc1Cl
# input Sequence the entries by GI50, beginning with the highest number. Dear reader, please state the labels in the requested order.
# output d, e, b, a, c
(d: 32000 nM, e: 350 nM, b: 140 nM, a: 79 nM, c: 48 nM)
